I'd appreciate it if you could supply Kd values for the items below.
- assaySystem: Recombinant Human DLL4 (human, UniProt Q9NR61 27-524)
- Sequence (Q9NR61 27-524 limits assumed): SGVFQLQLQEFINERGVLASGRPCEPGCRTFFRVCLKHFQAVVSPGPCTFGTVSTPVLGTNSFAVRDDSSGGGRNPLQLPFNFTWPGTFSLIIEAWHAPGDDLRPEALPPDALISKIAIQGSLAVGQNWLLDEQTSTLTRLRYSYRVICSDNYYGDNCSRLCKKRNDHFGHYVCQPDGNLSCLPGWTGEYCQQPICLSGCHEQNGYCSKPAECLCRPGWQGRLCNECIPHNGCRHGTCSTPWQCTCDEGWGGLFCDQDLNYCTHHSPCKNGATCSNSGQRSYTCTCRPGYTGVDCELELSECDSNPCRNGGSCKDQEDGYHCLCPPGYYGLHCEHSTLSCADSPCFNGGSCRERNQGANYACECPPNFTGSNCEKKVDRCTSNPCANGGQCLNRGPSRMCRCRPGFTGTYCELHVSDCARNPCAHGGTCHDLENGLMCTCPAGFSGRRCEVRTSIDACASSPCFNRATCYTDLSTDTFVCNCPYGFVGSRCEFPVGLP
- protocol: SPR (BIACORE)
Give bare numbers, in nM.

Below, 2 binders whose answers are already recorded.
AB331 (antibody, human IgG1, kappa, V domains shown, CDR-grafted parent antibody) VH: QVQLQQSGAELMKPGASVKLSCKVTGGSISSSSYYWGWIKQRPGHGLEWIGDIYYTGSTYYNPSLKSKVTITVDTSSNTFYIQLISLTTEDSAIYYCARQALAMGGGSDKWGQGTLLTVSA VL: DYLLTQSPAILSVSPGERVSFSCSGQRLGDKYASWYQQRTNGSPRLVIYEDSKRPSGIPSRFSGGNSGDDATLSINSVESEDIADYYCQAWDRDTGVFGAGTKLELKR ... 2.3
AB316 (antibody, human IgG1, kappa, V domains shown, CDR-grafted parent antibody) VH: EVQLVESGGGLVQPANSLKLSCAVSGGSISSSSYYWGWIRQSPKKGLEWIGDIYYTGSTYYNPSLKSRVTISVDTAKNTFYLQMDSLRSEDTATYYCARQALAMGGGSDKWGQGVLVTVSS VL: DYRLTQSPASLSASLGETVNIECSGQRLGDKYASWYQQKPGKSPQLVIYEDSKRPSGIPSRFSGSNSGDQASLKINSLQSEDVATYYCQAWDRDTGVFGGGTKLELKR ... 1

Reported Kd for AB289 (antibody, human IgG1, kappa, V domains shown, CDR-grafted parent antibody) VH: EVQLVQSGTEVKKPGESLKISCKASGFTFSNFPMAWVRQMPGKGLEWVATISSSDGTTYYRDSVKGQFTISRDNSFNTLFLQWSSLKASDTAMYYCARGYYNSPFAYWGQGTMVTVSS VL: EIVMTQSPATLSVSPGERATLSCRASEDIYSNLAWYQQKPGQAPRLLIYDTNNLADDVPARFSGSGSGTEFTLTISSLQSEDFAVYYCQQYNNYPPTFGQGTRLEIKR was 21
